- measured-target: human orexin-1 receptor (hOX1R) (Homo sapiens, UniProt O43613)
- assay: Measurement of orexin antagonistic activity (intracellular Ca2+ fluorescence, FDSS) on hOX1R
- experimental-conditions: CHO cells forcibly expressing hOX1R; Fluo-4AM; ligand peptide (substituted human orexin-A) 300 pM; compound preincubated 30 minutes; read-out: IC50 Value OX1
pIC50: −log10 of the molar value.
measure: pIC50

Look over these answered cases.
// pIC50 lookup, key: `CCN(C(=O)c1nc(C)ccc1-n1nccn1)[C@@H](C)Cn1cc(-c2ccc(F)cn2)nn1`
7.31

Moving on to `CCN(C(=O)c1cc(C)ccc1-n1nccn1)[C@@H](C)Cn1cc(-c2cccc(OC)c2)nn1`
9.05

And the next one, `CCN(C(=O)c1cc(F)ccc1-c1ncccn1)[C@H](C)Cn1ccc(-c2ccc(F)cn2)n1` ?
6.01

1 = CCN(C(=O)c1cc(F)ccc1-n1nccn1)[C@@H](C)Cn1nnc(-c2ccc(F)cc2)n1
2 = CCN(C(=O)c1cc(F)ccc1-c1ncccn1)[C@@H](C)Cn1cc(-c2ccc(F)cn2)nn1
Thinking about recorded pIC50 values, which is higher, 1 or 2 ? Could you answer with the label of the item you picked?
1
(1: 8.80, 2: 6.75)

A = Cc1ccc(-n2nccn2)c(C(=O)N(CCO)[C@@H](C)Cn2ccc(-c3ccc(F)cc3)n2)c1
B = CCN(C(=O)c1ccccc1-n1nccn1)[C@@H](C)Cc1noc(-c2ccc(F)cc2)n1
Given the listed items, does A or B have the lesser reported pIC50? Write the label of whichever entry you select.
A

A = Cc1ccc(-n2nccn2)c(C(=O)N(CC(C)O)[C@@H](C)Cn2cc(-c3ccc(F)cc3)cn2)c1 (stereo partly drawn)
B = CCN(C(=O)c1nc(C)ccc1-c1ncccn1)[C@@H](C)Cc1noc(-c2ccc(F)cc2)n1
Field: lower pIC50 | Options: A / B Pick one; state its label.
B

a = COCCN(C(=O)c1cc(C)ccc1-n1nccn1)[C@@H](C)Cn1ccc(-c2ccc(F)cc2)n1
b = CCN(C(=O)c1cc(C)ccc1-n1nccn1)[C@@H](C)Cn1nnc(-c2ccc(F)cc2)n1
Kindly identify which of a and b has the larger recorded pIC50 value. Lab note: record the label of whichever item you select.
b
(b: 9.15, a: 8.92)

A = CCN(C(=O)c1nc(C)ccc1-n1nccn1)[C@@H](C)Cn1ccc(-c2ccc(F)c(F)c2)n1
B = Cc1ccc(-n2nccn2)c(C(=O)N(CCS(C)(=O)=O)[C@@H](C)Cn2cc(-c3ccc(F)cc3)nn2)c1
C = CCN(C(=O)c1cc(F)ccc1-n1nccn1)[C@@H](C)Cc1noc(-c2ccc(F)cc2)n1
Task field, ranking: reported pIC50, descending order. Give the labels in the order requested.
C, A, B

---

- measured-target: human orexin-1 receptor (hOX1R) (Homo sapiens, UniProt O43613)
- assay: Measurement of orexin antagonistic activity (intracellular Ca2+ fluorescence, FDSS) on hOX1R
- experimental-conditions: CHO cells forcibly expressing hOX1R; Fluo-4AM; ligand peptide (substituted human orexin-A) 300 pM; compound preincubated 30 minutes; read-out: IC50 Value OX1
measure: IC50 (nM)

Fill in the recorded IC50 for this molecule, with human orexin-1 receptor (hOX1R) (Homo sapiens, UniProt O43613) as test system: CCN(C(=O)c1cc(C)ccc1-n1nccn1)C(C)Cc1ccn(-c2ccc(F)cn2)n1 (centres unmarked)
1.4

Same read-out for `CCN(C(=O)c1cc(F)ccc1-c1ncccn1)[C@@H](C)Cn1cc(-c2ccc(F)cc2)cn1` ?
1.2

Same question, `Cc1ccc(-n2nccn2)c(C(=O)N(CCO)[C@@H](C)Cn2ccc(-c3ccc(F)cn3)n2)c1` this time
1.3

Another molecule: `CCN(C(=O)c1ccc(F)cc1-c1ncccn1)[C@@H](C)Cn1ccc(-c2ccc(F)cc2)n1`
1.3

A = CCN(C(=O)c1cc(C)ccc1-n1nccn1)[C@@H](C)Cn1cc(-c2ccc(F)cc2)nn1
B = CCN(C(=O)c1cc(F)ccc1-c1ncccn1)[C@@H](C)Cc1noc(-c2ccc(F)cc2)n1
C = COCCN(C(=O)c1cc(C)ccc1-n1nccn1)[C@@H](C)Cn1cc(-c2ccc(F)cn2)cn1
D = CCN(C(=O)c1nc(C)ccc1-n1nccn1)[C@@H](C)Cn1cc(-c2ccc(F)cc2)nn1
Kindly order the items shown according to IC50, from the highest value down. List the labels in the requested order.
C, D, B, A

---

- measured-target: orexin-2 receptor (hOX2R) (Homo sapiens, UniProt O43614)
- Sequence (O43614 whole entry): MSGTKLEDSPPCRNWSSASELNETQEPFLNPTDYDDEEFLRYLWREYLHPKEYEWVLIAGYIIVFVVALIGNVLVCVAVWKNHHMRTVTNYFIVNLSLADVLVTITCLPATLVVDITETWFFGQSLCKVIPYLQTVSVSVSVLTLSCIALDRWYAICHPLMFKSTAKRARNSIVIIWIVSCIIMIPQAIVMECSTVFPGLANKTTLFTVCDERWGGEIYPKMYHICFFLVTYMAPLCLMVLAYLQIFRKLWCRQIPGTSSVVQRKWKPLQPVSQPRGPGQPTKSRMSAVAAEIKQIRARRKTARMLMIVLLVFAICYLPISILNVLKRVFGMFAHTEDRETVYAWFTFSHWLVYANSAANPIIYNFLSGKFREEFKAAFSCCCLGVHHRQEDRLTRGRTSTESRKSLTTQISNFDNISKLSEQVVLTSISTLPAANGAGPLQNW
- assay: Measurement of orexin antagonistic activity (intracellular Ca2+ fluorescence, FDSS) on hOX2R
- experimental-conditions: CHO cells forcibly expressing hOX2R; Fluo-4AM; ligand peptide (substituted human orexin-A) 3 nM; compound preincubated 30 minutes; read-out: IC50 Value OX2
measure: IC50 (nM)

Examples from the recorded data:
Recorded IC50 of `CCN(C(=O)c1ccccc1-c1ncccn1)[C@@H](C)Cn1ccc(-c2ccc(F)cc2)n1` , please.
12.8

Here is the next molecule: `CCN(C(=O)c1cc(F)ccc1-c1ncccn1)[C@H](C)Cn1ccc(-c2ccc(F)cn2)n1`
1420

P = COCCN(C(=O)c1cc(C)ccc1-n1nccn1)[C@@H](C)Cn1ccc(-c2ccc(F)cc2)n1
Q = COCCN(C(=O)c1cc(C)ccc1-n1nccn1)[C@@H](C)Cn1cc(-c2ccc(F)cc2)nn1
When their IC50 values are compared, which is larger, P or Q ? Response format: the label of the selected entry.
Q
(Q: 401 nM, P: 5.5 nM)

---

- measured-target: human orexin-1 receptor (hOX1R) (Homo sapiens)
- Sequence (O43613 1-425): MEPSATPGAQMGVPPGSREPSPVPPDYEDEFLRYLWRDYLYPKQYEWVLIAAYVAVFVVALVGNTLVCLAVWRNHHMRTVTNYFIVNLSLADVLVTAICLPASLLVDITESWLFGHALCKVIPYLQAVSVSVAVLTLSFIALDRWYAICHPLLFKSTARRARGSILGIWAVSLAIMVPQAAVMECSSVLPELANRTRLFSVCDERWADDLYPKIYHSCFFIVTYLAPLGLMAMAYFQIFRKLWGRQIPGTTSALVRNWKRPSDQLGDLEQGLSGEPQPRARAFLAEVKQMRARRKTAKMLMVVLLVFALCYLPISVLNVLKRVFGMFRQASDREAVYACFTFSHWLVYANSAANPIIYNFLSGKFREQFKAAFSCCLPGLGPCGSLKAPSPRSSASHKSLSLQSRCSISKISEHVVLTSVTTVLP
- assay: Measurement of orexin antagonistic activity (intracellular Ca2+ fluorescence, FDSS) on hOX1R
- experimental-conditions: CHO cells forcibly expressing hOX1R; Fluo-4AM; ligand peptide (substituted human orexin-A) 300 pM; compound preincubated 30 minutes; read-out: IC50 Value OX1
measure: IC50 (nM)

The cases that follow already have their IC50 on record.
IC50 of `CCN(C(=O)c1cc(F)ccc1-n1nccn1)[C@@H](C)Cc1noc(-c2ccc(F)cn2)n1` on human orexin-1 receptor (hOX1R) (Homo sapiens)?
5.1

What would you report for `Cc1ccc(-n2nccn2)c(C(=O)N(CCO)[C@@H](C)Cn2cc(-c3ccc(F)cc3)cn2)c1` ?
3.5

Same read-out for `CCN(C(=O)c1cc(C)ccc1-n1nccn1)[C@@H](C)Cn1cc(-c2cccc(C)c2)nn1` ?
2.4

Same read-out for `CCN(C(=O)c1nc(C)ccc1-n1nccn1)[C@@H](C)Cc1noc(-c2ccc(F)cn2)n1` ?
22.2

Further, for `CCN(C(=O)c1ccccc1-c1ncccn1)[C@@H](C)Cn1ccc(-c2ccc(F)cc2)n1` ?
0.2

Request: `Cc1ccc(-n2nccn2)c(C(=O)N(C)[C@@H](C)Cn2cc(-c3ccc(F)cn3)cn2)c1`
3.8

Can you handle `CCN(C(=O)c1cc(F)ccc1-c1ncccn1)[C@H](C)Cn1ccc(-c2ccc(F)cc2)n1` next?
364

Note, next up: `CCN(C(=O)c1nc(C)ccc1-n1nccn1)[C@@H](C)Cn1ccc(-c2ccc(F)cc2)n1`
1

Subsequent entry: `Cc1ccc(-n2nccn2)c(C(=O)N(C)[C@H](Cn2ccc(-c3ccc(F)cn3)n2)C(C)C)c1`
134

Next molecule: `CCN(C(=O)c1cc(F)ccc1-n1nccn1)[C@@H](C)Cn1cc(-c2ccc(F)cc2)nn1`
3.1

1 = CCN(C(=O)c1cc(F)ccc1-c1ncccn1)[C@@H](C)Cn1ccc(-c2ccc(F)cn2)n1
2 = CCN(C(=O)c1cc(C)ccc1-n1nccn1)[C@@H](C)Cc1noc(-c2ccc(F)cn2)n1
Of 1 and 2 , which one carries the higher reported IC50? Lab log: write the label of the selected item as the result.
1

---

- measured-target: UniProt:O43614
- assay: Measurement of orexin antagonistic activity (intracellular Ca2+ fluorescence, FDSS) on hOX2R
- experimental-conditions: CHO cells forcibly expressing hOX2R; Fluo-4AM; ligand peptide (substituted human orexin-A) 3 nM; compound preincubated 30 minutes; read-out: IC50 Value OX2
- Method: The antagonistic activities of the test compounds on human orexin-1 receptor (hOX1R) and orexin-2 receptor (hOX2R) were measured by modifying from the method described in literature (Toshikatsu Okumura et al., Biochemical and Biophysical Research Communications, 280, 976-981, 2001). […]
measure: IC50 (µM)

Past entries and their recorded results:
Any idea what IC50 came out for CCN(C(=O)c1ccccc1-n1nccn1)[C@@H](C)Cc1noc(-c2ccc(F)cn2)n1 [Example 56] on UniProt:O43614?
0.602

Same question for Cc1ccc(-c2ncccn2)c(C(=O)N(C)[C@@H](C)Cc2noc(-c3ccc(F)cc3)n2)c1 [Example 60] please.
0.045

Quick one: CCN(C(=O)c1ccccc1-n1nccn1)[C@@H](C)Cn1ccc(-c2ccc(F)cn2)n1 [Example 18]
0.0077

Same lookup for CCN(C(=O)c1cc(F)ccc1-c1ncccn1)[C@@H](C)Cn1ccc(-c2ccc(F)cc2)n1 [Example 11] , please.
0.0144

Now this one: CCN(C(=O)c1cc(F)ccc1-c1ncccn1)[C@@H](C)Cc1noc(-c2ccc(F)cc2)n1 [Example 53]
0.0756

Next record, please: Cc1ccc(-n2nccn2)c(C(=O)N(CCO)[C@@H](C)Cn2cc(-c3ccc(F)cc3)cn2)c1 [Example 43]
0.0136

Moving on to the next compound: CCN(C(=O)c1ccc(F)cc1-c1ncccn1)[C@@H](C)Cn1ccc(-c2ccc(F)cc2)n1 [Example 14]
0.007

And for CCN(C(=O)c1cc(C)ccc1-n1nccn1)[C@@H](C)Cn1cc(-c2ccc(F)c(OC)c2)nn1 [Example 99] ?
0.0015

1 = CCN(C(=O)c1nc(C)ccc1-n1nccn1)[C@@H](C)Cn1nnc(-c2ccc(F)cc2)n1 [Example 65]
2 = CCN(C(=O)c1cc(C)ccc1-n1nccn1)[C@@H](C)Cn1cc(-c2cccc(F)c2)nn1 [Example 98]
3 = C[C@@H](Cn1cc(-c2ccc(F)c(F)c2)cn1)N(C)C(=O)c1cc(F)ccc1-c1ncccn1 [Example 33]
4 = CCN(C(=O)c1nc(C)ccc1-n1nccn1)[C@@H](C)Cc1noc(-c2ccc(F)cn2)n1 [Example 58]
5 = CCN(C(=O)c1cc(F)ccc1-n1nccn1)[C@@H](C)Cc1noc(-c2ccc(F)cn2)n1 [Example 57]
Output the entries ranked by IC50 from maximum down to minimum. API: response body holds the labels in the requested order.
4, 5, 1, 3, 2
(4: 1.62 µM, 5: 1.08 µM, 1: 0.144 µM, 3: 0.0208 µM, 2: 0.0098 µM)

P = Cc1ccc(-n2nccn2)c(C(=O)N(CCO)[C@@H](C)Cn2nnc(-c3ccc(F)cc3)n2)c1 [Example 64]
Q = CCN(C(=O)c1nc(C)ccc1-n1nccn1)[C@@H](C)Cc1noc(-c2ccc(F)cc2)n1 [Example 49]
Consider P and Q . Which of these has its IC50 at a higher number? Give the chosen item's label as your response.
P
(P: 0.0479 µM, Q: 0.0322 µM)

a = CCN(C(=O)c1cc(C)ccc1-n1nccn1)C(C)Cc1ccn(-c2ccc(F)cn2)n1 (stereo not shown) [Example 75]
b = CCN(C(=O)c1cc(C)ccc1-c1ncccn1)[C@@H](C)Cn1nnc(-c2ccc(F)cc2)n1 [Example 68]
c = CCN(C(=O)c1cc(C)ccc1-n1nccn1)[C@@H](C)Cn1cc(-c2ccc(F)cn2)cn1 [Example 25]
d = CCN(C(=O)c1cc(C)ccc1-n1nccn1)[C@@H](C)Cc1nnc(-c2ccc(F)cc2)o1 [Example 76]
rank_up(items): orders items by reported IC50 in ascending numerical order. Answer by naming the labels in the order asked.
a, c, b, d

1 = CCN(C(=O)c1ccccc1-n1nccn1)[C@@H](C)Cc1noc(-c2ccc(F)cc2)n1 [Example 51]
2 = CCN(C(=O)c1cc(C)ccc1-n1nccn1)[C@@H](C)Cn1cc(-c2ccc(OC)cc2)nn1 [Example 96]
3 = CCN(C(=O)c1cc(C)ccc1-n1nccn1)[C@H](C)Cn1ccc(-c2ccc(F)cn2)n1 [Example 2]
4 = C[C@@H](Cn1cc(-c2ccc(F)cc2)cn1)N(C)C(=O)c1cc(F)ccc1-c1ncccn1 [Example 32]
Rank descending by IC50. Write out the labels following the order that was asked for.
2, 3, 4, 1
